Assayed target: T1, PSMA Fab (006 PSMA Fab)
T1 construct: also called Anti-PSMA Fab; anti-PSMA Fab
Experimental protocol: phage ELISA; clonal phage supernatant on biotinylated PSMA Fab captured on neutravidin plate, anti-M13 HRP detection
Where no end group is shown, it is not given here.
Reported property: Phage binding ELISA signal, Anti-PSMA Fab

>  <Binder>
VERACVPVWMCEGF (tested as crude phage supernatant) [Phage-2933]

>  <Measured>
2.29

$$$$
>  <Binder>
LAIMCRPAWMCSGF (tested as crude phage supernatant) [Phage-2920]

>  <Measured>
2.31

$$$$
>  <Binder>
VWPRCEPQWMCAGF (cysteine pairing not given here; also: peptide displayed as fusion to phage pIII, tested as crude phage supernatant; The label 2923 is printed twice (r2444 and r2446); by the order this row is probably Phage-2922; also called probably Phage-2922) [Phage-2923 (as printed at r2443/r2444; SEQ ID NO: 3238)]

>  <Measured>
2.31

$$$$
